- Target or system: human VR1 (Homo sapiens, UniProt Q8NER1)
- Construct: expressed in transfected cells; host or cells: HEK293
- Sequence (Q8NER1 whole entry): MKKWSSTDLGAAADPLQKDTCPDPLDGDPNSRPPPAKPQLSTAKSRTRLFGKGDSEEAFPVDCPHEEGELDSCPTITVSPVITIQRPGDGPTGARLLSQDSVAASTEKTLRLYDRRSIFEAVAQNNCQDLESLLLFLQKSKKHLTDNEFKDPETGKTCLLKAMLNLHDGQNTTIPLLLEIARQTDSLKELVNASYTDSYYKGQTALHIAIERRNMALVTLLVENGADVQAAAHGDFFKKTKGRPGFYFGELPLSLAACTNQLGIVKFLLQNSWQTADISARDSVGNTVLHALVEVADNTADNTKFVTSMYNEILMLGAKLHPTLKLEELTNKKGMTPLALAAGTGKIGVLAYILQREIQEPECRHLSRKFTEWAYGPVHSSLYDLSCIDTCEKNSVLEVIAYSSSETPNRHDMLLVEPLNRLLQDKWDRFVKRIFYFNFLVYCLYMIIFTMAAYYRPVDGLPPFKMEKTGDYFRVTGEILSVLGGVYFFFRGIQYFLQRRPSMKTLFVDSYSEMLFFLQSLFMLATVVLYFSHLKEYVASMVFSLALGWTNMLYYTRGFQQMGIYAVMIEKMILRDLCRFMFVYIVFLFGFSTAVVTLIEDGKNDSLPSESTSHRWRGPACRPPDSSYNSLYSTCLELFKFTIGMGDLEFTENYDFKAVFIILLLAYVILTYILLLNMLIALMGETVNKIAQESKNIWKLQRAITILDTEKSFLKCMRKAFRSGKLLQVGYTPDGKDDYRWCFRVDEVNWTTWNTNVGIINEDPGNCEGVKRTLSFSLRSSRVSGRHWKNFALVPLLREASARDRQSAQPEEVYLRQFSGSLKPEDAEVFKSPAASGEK
- Measurement notes: Human VR1 functional assay (FLIPR intracellular Ca2+)
- Type: cell-based
- Experimental parameters: inhibition of capsaicin response, 1 μM; read-out: h % I (1 μM)
Measured endpoint: inhibition at 1 µM (%)
Please reply with the bare figure in % and do not write the unit itself.

1) O=C(/C=C/c1ccc(SC(F)(F)F)cc1)Nc1ccc(-n2cnc(Cl)c2Cl)c(C(F)(F)F)c1 [Cpd 228]; 92
2) CC(C)(C)c1ccc(CCC(=O)Nc2ccc(-c3ccc(CO)cc3)c(CO)c2)cc1 [Cpd 96]; 91

Field: next compound
Query: inhibition at 1 µM; subject: Cc1cc(NC(=O)CCc2ccc(C(C)(C)C)cc2)ccc1-c1ccncc1 [Cpd 180]
91

---

- Target or system: human VR1 (Homo sapiens, UniProt Q8NER1)
- Construct: expressed in transfected cells; host or cells: HEK293
- Measurement notes: Human VR1 [3H]RTX binding assay
- Experimental parameters: inhibition of [3H]RTX binding at 1 μM; read-out: h Binding % I (1 μM)
Below, each entry is listed alongside its reported inhibition at 1 µM.
Please reply with the bare figure in % and do not write the unit itself.

1) CC(C)(C)c1ccc(CCC(=O)Nc2ccc(-c3cccc4[nH]ccc34)cc2)cc1; 64
2) CC(C)(C)c1ccc(CCC(=O)Nc2ccc(-c3cccc(C#N)c3)cc2)cc1; 94
3) CC(C)(C)c1ccc(CCC(=O)Nc2ccccc2-c2ccc(CO)cc2)cc1; 1

Field: next compound
Query: inhibition at 1 µM; subject: `CC(C)(C)c1ccc(CCC(=O)Nc2ccc(-n3cncn3)cc2)cc1`
37

---

Below, each entry is listed alongside its reported % Response Relative to EC80 of Capsaicin (12 μM).
- Target or system: human VR1 (Homo sapiens)
- Construct: expressed in transfected cells; host or cells: HEK293
- Measurement notes: Human VR1 functional assay (FLIPR intracellular Ca2+)
- Assay type: cell-based
- Experimental parameters: agonist response, 12 μM
Please reply with the bare figure in % and do not write the unit itself.

Recorded % Response Relative to EC80 of Capsaicin (12 μM), per entry:
1) O=C(CCc1ccc(C(F)(F)F)cc1)Nc1ccc(-c2cccnc2)nc1; 91
2) CC(C)(C)c1ccc(CCC(=O)Nc2ccc(-c3ccccc3O)cc2)cc1; 67
3) CC(C)(C)c1ccc(CCC(=O)Nc2ccc(-c3cccc(NS(C)(=O)=O)c3)cc2)cc1; 74

Field: next compound
Query: % Response Relative to EC80 of Capsaicin (12 μM); subject: `CC(=O)Nc1cccc(-c2ccc(NC(=O)CCc3ccc(C(F)(F)F)cc3)cn2)c1`
92

---

- Target or system: human VR1 (Homo sapiens)
- Construct: expressed in transfected cells; host or cells: HEK293
- Measurement notes: Human VR1 functional assay (FLIPR intracellular Ca2+)
- Assay type: cell-based
- Experimental parameters: inhibition of capsaicin response, 1 μM
Below, each entry is listed alongside its reported h % I (1 μM).

Recorded h % I (1 μM), per entry:
1. Cc1nccn1-c1ccc(NC(=O)CCc2ccc(C(F)(F)F)cc2)cc1C(F)(F)F; 20%
2. CC(C)c1nccn1-c1ccc(NC(=O)CCc2ccc(C(F)(F)F)cc2)cc1C(F)(F)F; 15%
3. Cc1cc(NC(=O)/C=C/c2ccc(SC(F)(F)F)cc2)cnc1-n1cnc(Cl)c1Cl; 16%
4. COC(=O)c1cn(-c2ccc(NC(=O)CCc3ccc(C(F)(F)F)cc3)cc2C(F)(F)F)cn1; 26%

Field: next molecule
Query: h % I (1 μM); subject: `CC(C)(C)c1ccc(CCC(=O)Nc2cnc(-c3cccnc3)cn2)cc1`
11%
